Each entry below carries its reported IC50.
measurement_target: PD-1/PD-L1 interaction (PDL1-6×His protein, PD1-Fc-Avi-Biotin protein) (Homo sapiens, UniProt Q9NZQ7)
Sequence (Q9NZQ7 19-238 limits assumed): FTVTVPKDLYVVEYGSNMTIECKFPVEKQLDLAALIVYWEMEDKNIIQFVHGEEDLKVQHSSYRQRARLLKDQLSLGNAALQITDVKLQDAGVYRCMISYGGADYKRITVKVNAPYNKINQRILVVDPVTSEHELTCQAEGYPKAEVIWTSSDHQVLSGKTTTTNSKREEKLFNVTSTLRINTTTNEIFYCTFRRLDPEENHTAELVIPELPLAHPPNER
test_details: PDL1/PD1 Binding Assay
recorded_conditions: Table C; 0.3 nM PDL1, 2.5 nM PD1; read-out: PD-1/PD-L1 PPI IC50

CC1Cc2cc(-c3cccc(-c4cccc(-c5ccc6c(c5)CC(C)NC6)c4Cl)c3Cl)ccc2CN1 (centres unmarked) : 10 to 100 nM
O=C(O)C[C@H](O)CN1CCc2ccc(-c3cccc(-c4cccc(-c5ccc6c(c5)CN(C[C@@H](O)CC(=O)O)CC6)c4Cl)c3Cl)cc2C1 : ≤ 10 nM
COc1nc(-c2cccc(-c3cccc(-c4cc5c(c(OC)n4)[C@H](N4CC6(CN(C(C)=O)C6)C4)CC5)c3Cl)c2F)cc2c1[C@H](N1CC3(CN(C(C)=O)C3)C1)CC2 (single isomer, unassigned) : ≤ 10 nM

So what's the measured IC50 for this one? COc1nc(-c2cccc(-c3cccc(-c4cc5c(c(OC)n4)[C@@H](N4CC6(CN(C(C)=O)C6)C4)CC5)c3Cl)c2F)cc2c1[C@@H](N1CC3(CN(C(C)=O)C3)C1)CC2 (single isomer, unassigned) ≤ 10 nM

What would you report for "N[C@@H](CC(=O)O)C(=O)N1CCc2ccc(-c3cccc(-c4cccc(-c5ccc6c(c5)CN(C(=O)[C@@H](N)CC(=O)O)CC6)c4Cl)c3Cl)cc2C1" ? 10 to 100 nM

---

measurement_target: PD-1/PD-L1 interaction (Jurkat cells overexpressing PD-1 co-cultured with PD-L1 expressing CHO cells) (Homo sapiens)
Construct: Jurkat cells (PD-1 and NF-AT luciferase construct)
test_details: PD-1/PD-L1 NFAT Reporter Assay
recorded_conditions: Table C-1; Jurkat/CHO co-culture, 6 hrs at 37° C., luciferase activity
pEC50: −log10 of the molar value.
measurement_label: pEC50

Known results for molecules:
CCOC(=O)C1CN([C@@H]2CCc3cc(-c4cccc(-c5cccc(-c6ccc7c(c6)CC[C@H]7N6CC(C(=O)OCC)C6)c5Cl)c4Cl)ccc32)C1 (single isomer, unassigned) : 6.00 to 7.00
COc1nc(-c2cccc(-c3cccc(-c4cc5c(c(OC)n4)[C@@H](N4CC6(CN(C(C)=O)C6)C4)CC5)c3Cl)c2F)cc2c1[C@@H](N1CC3(CN(C(C)=O)C3)C1)CC2 (single isomer, unassigned) : < 5.00
COc1nc(-c2cccc(-c3cccc(-c4cc5c(c(OC)n4)[C@@H](NC[C@@H]4CCC(=O)N4)CC5)c3Cl)c2F)cc2c1[C@@H](NC[C@@H]1CCC(=O)N1)CC2 : ≥ 8.00
CCOC(=O)C1CN(C2CCc3cc(-c4cccc(-c5cccc(-c6cc7c(c(OC)n6)CCN(CCOC)C7)c5Cl)c4Cl)cc(OC)c32)C1 (single isomer, unassigned) : 6.00 to 7.00

So what's the measured pEC50 for this one? COc1cc(-c2cccc(-c3cccc(-c4cc5c(c(OC)c4)C(N4CC(C(=O)O)C4)CC5)c3Cl)c2Cl)cc2c1C(N1CC(C(=O)O)C1)CC2 (centres unmarked) 6.00 to 7.00

---

measurement_target: PD-1/PD-L1 interaction (PDL1-6×His protein, PD1-Fc-Avi-Biotin protein) (Homo sapiens)
test_details: PDL1/PD1 Binding Assay
recorded_conditions: Table C-1; 0.3 nM PDL1, 2.5 nM PD1; read-out: Biological Data Biochem PD-1/PD-L1
Each entry below carries its reported IC50.

Known results for molecules:
CCOC(=O)C1CN([C@@H]2CCc3cc(-c4cccc(-c5cccc(-c6ccc7c(c6)CC[C@H]7N6CC(C(=O)O)C6)c5Cl)c4Cl)ccc32)C1 (single isomer, unassigned) : ≤ 10 nM
O=C(O)C1CN([C@@H]2CCc3cc(-c4cccc(-c5cccc(-c6ccc7c(c6)CC[C@H]7N6CC(C(=O)O)C6)c5Cl)c4Cl)ccc32)C1 (single isomer, unassigned) : ≤ 10 nM
CCOC(=O)C1CN([C@H]2CCc3cc(-c4cccc(-c5cccc(-c6cc7c(c(OC)c6)[C@@H](N6CC(C(=O)OCC)C6)CC7)c5Cl)c4Cl)cc(OC)c32)C1 (single isomer, unassigned) : ≤ 10 nM
CCOC(=O)C1CN([C@@H]2CCc3cc(-c4cccc(-c5cccc(-c6ccc7c(c6)CC[C@H]7N6CC(C(=O)OCC)C6)c5Cl)c4Cl)ccc32)C1 (single isomer, unassigned) : ≤ 10 nM

Now turn to the next molecule.
So what's the measured IC50 for this one? O=C(O)C1CN([C@H]2CCc3cc(-c4cccc(-c5cccc(-c6ccc7c(c6)CC[C@@H]7N6CC(C(=O)O)C6)c5Cl)c4Cl)ccc32)C1 (single isomer, unassigned) ≤ 10 nM

---

measurement_target: PD-1/PD-L1 interaction (Jurkat cells overexpressing PD-1 co-cultured with PD-L1 expressing CHO cells) (Homo sapiens, UniProt Q9NZQ7)
Construct: Jurkat cells (PD-1 and NF-AT luciferase construct)
Sequence (Q9NZQ7 19-290): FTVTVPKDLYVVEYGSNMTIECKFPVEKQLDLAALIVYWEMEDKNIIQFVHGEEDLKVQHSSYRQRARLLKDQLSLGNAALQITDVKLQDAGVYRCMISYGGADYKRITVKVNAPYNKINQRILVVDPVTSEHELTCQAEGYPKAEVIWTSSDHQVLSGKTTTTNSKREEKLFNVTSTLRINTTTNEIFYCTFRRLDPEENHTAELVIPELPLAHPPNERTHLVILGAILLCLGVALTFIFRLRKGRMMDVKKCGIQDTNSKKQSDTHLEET
test_details: PD-1/PD-L1 NFAT Reporter Assay
recorded_conditions: Table C-1; Jurkat/CHO co-culture, 6 hrs at 37° C., luciferase activity
Each entry below carries its reported EC50.

COc1cc(-c2cccc(-c3cccc(-c4cc5c(c(OC)c4)[C@H](NC[C@@H]4CCC(=O)N4)CC5)c3Cl)c2Cl)cc2c1[C@H](NC[C@@H]1CCC(=O)N1)CC2 (single isomer, unassigned) [Compound L-1] : 10 to 100 nM
COc1nc(-c2cccc(-c3cccc(-c4cc5c(c(OC)n4)[C@@H](N4CC6(CCC(=O)N6)C4)CC5)c3Cl)c2F)cc2c1[C@@H](N1CC3(CCC(=O)N3)C1)CC2 (single isomer, unassigned) [Compound L-9] : ≤ 10 nM

So what's the measured EC50 for this one? COc1cc(-c2cccc(-c3cccc(-c4cc5c(c(OC)c4)[C@@H](N4CC(C(=O)O)C4)CC5)c3Cl)c2Cl)cc2c1[C@H](NC[C@@H]1CCC(=O)N1)CC2 (single isomer, unassigned) [Compound N-3B] 10 to 100 nM

What would you report for COc1cc(-c2cccc(-c3cccc(-c4cc5c(c(OC)c4)[C@@H](NC[C@@H]4CCC(=O)N4)CC5)c3Cl)c2Cl)cc2c1[C@@H](NC[C@@H]1CCC(=O)N1)CC2 (single isomer, unassigned) [Compound L-2] ? > 10000 nM

What would you report for COCCN1CCc2c(cc(-c3cccc(-c4cccc(-c5cc6c(c(OC)c5)[C@@H](N5CC(C(=O)O)C5)CC6)c4Cl)c3Cl)nc2OC)C1 [Compound O-2B] ? 10 to 100 nM

What would you report for CCOC(=O)C1CN([C@@H]2CCc3cc(-c4cccc(-c5cccc(-c6ccc7c(c6)CC[C@H]7N6CC(C(=O)O)C6)c5Cl)c4Cl)ccc32)C1 (single isomer, unassigned) [Compound M-3A] ? 100 to 1000 nM

What would you report for CCOC(=O)C1CN([C@H]2CCc3cc(-c4cccc(-c5cccc(-c6cc7c(c(OC)c6)[C@H](NC[C@@H]6CCC(=O)N6)CC7)c5Cl)c4Cl)cc(OC)c32)C1 (single isomer, unassigned) [Compound N-3A] ? 10 to 100 nM

What would you report for COCCN1CCc2c(cc(-c3cccc(-c4cccc(-c5cc6c(c(OC)n5)CCN(CCOC)C6)c4Cl)c3Cl)nc2OC)C1 [Compound O-1] ? 1000 to 10000 nM

What would you report for O=C(O)C1CN([C@@H]2CCc3cc(-c4cccc(-c5cccc(-c6ccc7c(c6)CC[C@H]7N6CC(C(=O)O)C6)c5Cl)c4Cl)ccc32)C1 (single isomer, unassigned) [Compound M-3B] ? 100 to 1000 nM

What would you report for CCOC(=O)C1CN([C@H]2CCc3cc(-c4cccc(-c5cccc(-c6ccc7c(c6)CC[C@@H]7N6CC(C(=O)OCC)C6)c5Cl)c4Cl)ccc32)C1 (single isomer, unassigned) [Compound L-6] ? 1000 to 10000 nM

---

measurement_target: PD-1/PD-L1 interaction (PDL1-6×His protein, PD1-Fc-Avi-Biotin protein) (Homo sapiens)
test_details: PDL1/PD1 Binding Assay
recorded_conditions: Table C; 0.3 nM PDL1, 2.5 nM PD1; read-out: PD-1/PD-L1 PPI IC50
Each entry below carries its reported IC50.

Known results for compounds:
O=C(O)CN1CCc2cc(-c3cccc(-c4cccc(-c5ccc6c(c5)CCN(CC(=O)O)C6)c4Cl)c3Cl)ccc2C1 : ≤ 10 nM
O=C(O)CNC1Cc2ccc(-c3cccc(-c4cccc(-c5ccc6c(c5)CC(NCC(=O)O)C6)c4Cl)c3Cl)cc2C1 (centres unmarked) : ≤ 10 nM
Clc1c(-c2ccc3c(n2)OCCNC3)cccc1-c1cccc(-c2ccc3c(n2)OCCNC3)c1Cl : 100 to 1000 nM
O=C(O)C[C@H](O)CN1CCc2cc(-c3cccc(-c4cccc(-c5ccc6c(c5)CCN(C[C@@H](O)CC(=O)O)C6)c4Cl)c3Cl)ccc2C1 : ≤ 10 nM
N[C@@H]1CCc2cc(-c3cccc(-c4cccc(-c5ccc6c(c5)CC[C@H]6N)c4Cl)c3Cl)ccc21 : 100 to 1000 nM
Clc1c(-c2ccc3c(n2)CCNC3)cccc1-c1cccc(-c2ccc3c(n2)CCNC3)c1Cl : 10 to 100 nM
O=C(O)CN1CC2(C1)OCc1cc(-c3cccc(-c4cccc(-c5ccc6c(c5)COC65CN(CC(=O)O)C5)c4Cl)c3Cl)ccc12 : 10 to 100 nM
O=C(O)C[C@H](O)CN1Cc2ccc(-c3cccc(-c4cccc(-c5ccc6c(c5)CN(C[C@@H](O)CC(=O)O)C6)c4Cl)c3Cl)cc2C1 : ≤ 10 nM

So what's the measured IC50 for this one? "Cc1c(-c2cccc(-c3cccc(-c4ccc5c(c4C)CCNC5)c3Cl)c2Cl)ccc2c1CCNC2" 100 to 1000 nM

What would you report for O=C1CC[C@@H](CNC2Cc3ccc(-c4cccc(-c5cccc(-c6ccc7c(c6)CC(O)C7)c5Cl)c4Cl)cc3C2)N1 (some centres unmarked) ? 100 to 1000 nM

What would you report for "CC1(C)CNCc2ccc(-c3cccc(-c4cccc(-c5ccc6c(c5)C(C)(C)CNC6)c4Cl)c3Cl)cc21" ? 1000 to 10000 nM

What would you report for "Fc1cc(-c2cccc(-c3cccc(-c4cc(F)c5c(c4)CCNC5)c3Cl)c2Cl)cc2c1CNCC2" ? 10 to 100 nM

What would you report for "Cc1c(-c2cccc(-c3cccc(-c4ccc5c(c4C)CNCC5)c3Cl)c2Cl)ccc2c1CNCC2" ? 1000 to 10000 nM

What would you report for "O=C(O)C[C@H](O)CN1CCc2cc(-c3cccc(-c4cccc(-c5cc(F)c6c(c5)CCN(C[C@@H](O)CC(=O)O)C6)c4Cl)c3Cl)cc(F)c2C1" ? ≤ 10 nM
